target: Insulin receptor (Homo sapiens) (UniProt P06213); conditions: at 1 µM
Sequence (P06213 28-758 limits assumed): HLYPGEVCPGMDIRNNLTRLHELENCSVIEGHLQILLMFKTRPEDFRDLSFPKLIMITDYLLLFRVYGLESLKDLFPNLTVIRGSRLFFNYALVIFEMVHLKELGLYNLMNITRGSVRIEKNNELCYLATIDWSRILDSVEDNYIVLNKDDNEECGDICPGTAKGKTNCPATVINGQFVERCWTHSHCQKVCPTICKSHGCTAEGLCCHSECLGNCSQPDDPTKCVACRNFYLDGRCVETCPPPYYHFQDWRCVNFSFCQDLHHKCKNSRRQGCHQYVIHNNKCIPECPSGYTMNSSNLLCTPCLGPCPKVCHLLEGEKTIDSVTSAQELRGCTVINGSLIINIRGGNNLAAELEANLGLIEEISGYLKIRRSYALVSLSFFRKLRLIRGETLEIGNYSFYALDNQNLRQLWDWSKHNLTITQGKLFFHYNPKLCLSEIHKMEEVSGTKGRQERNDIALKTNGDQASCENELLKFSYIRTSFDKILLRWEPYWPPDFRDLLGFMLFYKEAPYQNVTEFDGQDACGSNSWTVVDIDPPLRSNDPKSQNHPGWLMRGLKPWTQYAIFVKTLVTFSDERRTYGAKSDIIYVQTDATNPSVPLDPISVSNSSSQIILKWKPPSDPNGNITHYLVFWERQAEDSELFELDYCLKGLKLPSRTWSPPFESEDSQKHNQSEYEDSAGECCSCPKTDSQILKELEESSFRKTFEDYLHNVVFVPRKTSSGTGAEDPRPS
Sequence (P06213 763-1382 limits assumed): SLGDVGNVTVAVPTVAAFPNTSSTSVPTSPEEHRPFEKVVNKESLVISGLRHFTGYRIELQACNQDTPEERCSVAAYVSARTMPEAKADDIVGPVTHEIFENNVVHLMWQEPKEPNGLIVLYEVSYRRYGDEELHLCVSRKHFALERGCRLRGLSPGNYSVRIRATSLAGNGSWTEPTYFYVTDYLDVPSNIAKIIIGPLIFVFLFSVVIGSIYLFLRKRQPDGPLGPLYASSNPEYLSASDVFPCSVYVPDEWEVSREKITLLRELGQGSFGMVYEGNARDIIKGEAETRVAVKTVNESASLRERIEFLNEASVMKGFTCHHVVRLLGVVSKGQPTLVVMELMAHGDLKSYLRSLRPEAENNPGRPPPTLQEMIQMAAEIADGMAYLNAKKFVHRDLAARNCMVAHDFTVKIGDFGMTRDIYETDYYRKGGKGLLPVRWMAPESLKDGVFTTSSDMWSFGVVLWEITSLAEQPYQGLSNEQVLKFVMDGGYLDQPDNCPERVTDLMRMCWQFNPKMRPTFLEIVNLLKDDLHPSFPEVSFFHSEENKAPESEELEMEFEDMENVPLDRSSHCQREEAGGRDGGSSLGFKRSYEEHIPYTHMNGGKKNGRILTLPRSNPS
measured quantity: residual activity (%)
Note: unit % is implicit; provide only the numeric part.

| structure string | target system | measured quantity | unit | data value |
| --- | --- | --- | --- | --- |
| CCCCc1c(-c2ccc(OC)cc2)[nH]c2nccnc12 | Insulin receptor (Homo sapiens) (UniProt P06213) | residual activity | % | 66 |
| O=C(CCCc1ccc(-c2ccccc2F)cc1)Nc1ccc(O)cc1 | Insulin receptor (Homo sapiens) (UniProt P06213) | residual activity | % | 97 |
| Nc1ncnc2c1c(-c1ccc(Oc3ccccc3)cc1)cn2C1CCCC1 | Insulin receptor (Homo sapiens) (UniProt P06213) | residual activity | % | 90 |

Input: Fill in residual activity for O=C1NC(=O)C(c2c[nH]c3ccccc23)=C1c1c[nH]c2ccccc12 tested with Insulin receptor (Homo sapiens) (UniProt P06213).
Output: 100

Input: Look up and report residual activity, with Insulin receptor (Homo sapiens) (UniProt P06213) as system, for O=C1Cc2c([nH]c3ccc(Br)cc23)-c2ccccc2N1
Output: 93

Input: Retrieve residual activity on Insulin receptor (Homo sapiens) (UniProt P06213); query O=C1C(Cl)=C(N2C(=O)CCC2=O)C(=O)c2ccccc21
Output: 89

* * *

molecular target: Angiopoietin-1 receptor (Homo sapiens) (UniProt Q02763); settings: at 10 µM
Sequence (Q02763 whole entry): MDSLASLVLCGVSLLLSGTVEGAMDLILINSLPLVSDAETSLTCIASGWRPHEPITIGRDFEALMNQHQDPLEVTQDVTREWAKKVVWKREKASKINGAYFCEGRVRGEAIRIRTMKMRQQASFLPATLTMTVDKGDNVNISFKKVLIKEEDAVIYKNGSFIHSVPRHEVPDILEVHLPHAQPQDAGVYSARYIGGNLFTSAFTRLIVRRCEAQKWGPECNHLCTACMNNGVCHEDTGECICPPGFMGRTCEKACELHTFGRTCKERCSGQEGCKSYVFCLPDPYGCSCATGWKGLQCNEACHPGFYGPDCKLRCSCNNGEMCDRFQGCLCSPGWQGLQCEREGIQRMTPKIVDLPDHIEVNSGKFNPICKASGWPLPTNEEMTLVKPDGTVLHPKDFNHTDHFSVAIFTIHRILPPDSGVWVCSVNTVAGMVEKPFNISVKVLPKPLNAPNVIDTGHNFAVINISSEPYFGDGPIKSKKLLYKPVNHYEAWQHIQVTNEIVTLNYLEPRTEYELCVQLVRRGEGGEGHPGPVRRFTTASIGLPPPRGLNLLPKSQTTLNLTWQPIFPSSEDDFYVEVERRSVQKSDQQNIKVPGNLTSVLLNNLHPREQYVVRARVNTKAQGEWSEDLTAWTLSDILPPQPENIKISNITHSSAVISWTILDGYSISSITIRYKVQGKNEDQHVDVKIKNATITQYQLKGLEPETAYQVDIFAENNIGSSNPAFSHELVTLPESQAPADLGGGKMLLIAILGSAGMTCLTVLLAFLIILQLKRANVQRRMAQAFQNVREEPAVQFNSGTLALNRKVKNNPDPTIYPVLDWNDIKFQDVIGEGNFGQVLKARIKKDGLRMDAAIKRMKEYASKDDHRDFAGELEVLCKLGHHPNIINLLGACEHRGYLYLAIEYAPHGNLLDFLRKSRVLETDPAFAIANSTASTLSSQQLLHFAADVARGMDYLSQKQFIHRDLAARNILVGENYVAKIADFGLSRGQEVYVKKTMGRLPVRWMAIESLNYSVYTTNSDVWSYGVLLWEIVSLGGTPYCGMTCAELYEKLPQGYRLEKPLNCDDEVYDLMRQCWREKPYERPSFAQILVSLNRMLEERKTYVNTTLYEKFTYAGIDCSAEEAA
Entries and their residual activity
Write the numeric value and append its unit.

Below, each entry is followed by its recorded residual activity result.
| molecule | residual activity |
| --- | --- |
| O=C1NC(=O)C(c2cn(CCCO)c3ncccc23)=C1c1cnccn1 | 94% |
| O=C(Nc1ccc(Cl)cc1)c1ccccc1NCc1ccncc1 | 79% |
| O=C(NC(NC(=S)Nc1ccc(F)c([N+](=O)[O-])c1)C(Cl)(Cl)Cl)C(c1ccccc1)c1ccccc1 (stereo not given) | 82% |
| CN(C)S(=O)(=O)c1ccc2c(c1)/C(=C/c1cc3c([nH]1)CCCC3)C(=O)N2 | 51% |

Input: Consider the molecule Nc1nc(Nc2ccc(S(N)(=O)=O)cc2)nn1C(=O)c1c(F)cccc1F tested on Angiopoietin-1 receptor (Homo sapiens) (UniProt Q02763); state its residual activity.
Output: 0%

* * *

target: SRSF protein kinase 3 (Homo sapiens); conditions: at 1 µM;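 further: residual kinase activity expressed as percent of uninhibited control, measured in MOPS buffer at pH 7.0 containing EDTA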
Description: Millipore: Percentage of residual kinase activity of SRPK3 at 1uM relative to control. Control inhibitor: Phosphoric acid* at 0.3uM. Buffer: 8 mM MOPS pH 7.0, 0.2 mM EDTA
measured quantity: residual activity (%)
Field: numeric (%). Do not append units.

| structure string | target system | residual activity / % |
| --- | --- | --- |
| CCN(CC)CCNC(=O)c1c(C)[nH]c(/C=C2\C(=O)Nc3ccc(Cl)cc32)c1C | SRSF protein kinase 3 (Homo sapiens) | 98 |
| O=C1Cc2c([nH]c3ccc(Br)cc23)-c2ccccc2N1 | SRSF protein kinase 3 (Homo sapiens) | 98 |
| NC(=O)Nc1sc(-c2ccc(F)cc2)cc1C(N)=O | SRSF protein kinase 3 (Homo sapiens) | 96 |
| CC(C)c1nn(-c2c(Cl)cccc2Cl)c2nc(Cc3ccc(OCCO)cc3)[nH]c(=O)c12 | SRSF protein kinase 3 (Homo sapiens) | 87 |
| O=C(c1ccccc1)c1ccc(N2CCOCC2)cc1O | SRSF protein kinase 3 (Homo sapiens) | 113 |

Turning to the following compound.
Input: Consider the compound CC(C)(C)n1nc(Cc2cccc3ccccc23)c2c(N)ncnc21 . State its measured residual activity.
Output: 116

* * *

target: Interleukin-1 receptor-associated kinase 1 (Homo sapiens) (UniProt P51617); conditions: at 10 µM
Sequence (P51617 whole entry, looked up): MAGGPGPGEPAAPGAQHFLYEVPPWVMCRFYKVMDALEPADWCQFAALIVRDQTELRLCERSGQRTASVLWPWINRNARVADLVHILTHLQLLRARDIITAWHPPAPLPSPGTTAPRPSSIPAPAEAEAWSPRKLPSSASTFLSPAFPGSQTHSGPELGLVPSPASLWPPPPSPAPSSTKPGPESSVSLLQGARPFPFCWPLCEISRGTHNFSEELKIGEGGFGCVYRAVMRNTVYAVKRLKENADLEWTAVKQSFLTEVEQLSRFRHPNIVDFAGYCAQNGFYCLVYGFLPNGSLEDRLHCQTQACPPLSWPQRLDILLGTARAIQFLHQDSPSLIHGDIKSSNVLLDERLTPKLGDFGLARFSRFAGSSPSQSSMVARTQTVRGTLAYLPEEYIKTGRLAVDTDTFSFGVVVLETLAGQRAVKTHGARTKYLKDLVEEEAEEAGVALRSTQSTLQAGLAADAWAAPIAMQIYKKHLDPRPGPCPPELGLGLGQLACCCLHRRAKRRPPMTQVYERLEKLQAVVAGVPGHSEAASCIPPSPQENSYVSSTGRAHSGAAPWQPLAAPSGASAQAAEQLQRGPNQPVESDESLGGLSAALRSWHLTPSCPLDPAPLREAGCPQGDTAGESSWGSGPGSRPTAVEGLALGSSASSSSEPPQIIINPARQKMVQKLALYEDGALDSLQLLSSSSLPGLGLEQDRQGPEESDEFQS
// residual activity lookup, one value per entry
Give just the number in %; leave the unit off.

Some compounds with recorded residual activity:
| structure string | residual activity, % |
| --- | --- |
| O=C(Nc1nc2ccccc2n1CCN1CCOCC1)c1cccc([N+](=O)[O-])c1 | 16 |
| Cc1cc(C)c(/C=C2\C(=O)Nc3ccccc32)[nH]1 | 75 |
| Nc1ncnc2[nH]nc(Nc3ccc(F)cc3)c12 | 101 |
| O=C1Cc2c([nH]c3ccc(Br)cc23)-c2ccccc2N1 | 68 |
| CN(C)S(=O)(=O)c1ccc2c(c1)/C(=C/c1cc3c([nH]1)CCCC3)C(=O)N2 | 0 |
| N#C/C(=C1/Nc2ccccc2S1)c1ccnc(NCCc2cccnc2)n1 | 70 |

Input: Using the record for COc1ccc2c(c1)c(C1=C(c3c[nH]c4ccccc34)C(=O)NC1=O)cn2CCCN(C)C , state its measured residual activity.
Output: 75

Input: Retrieve residual activity measured for O=C1NC(=O)c2c1c1c3ccccc3[nH]c1n1cncc21 and print it.
Output: 66

Input: Given the compound CCCCc1c(-c2ccc(O)cc2)[nH]c2nccnc12 , write its reported residual activity.
Output: 53

Input: Let me know recorded residual activity for COc1ccc(COc2ccc(Cc3cnc(N)nc3N)cc2OC)cc1 , thanks.
Output: 67

Input: Determine from records and report residual activity for O=C1NC(=O)C(c2cn(CCCn3ccnc3)c3ccccc23)=C1Nc1ccccc1
Output: 76

Input: Entry CCCCc1c(-c2ccc(OC)cc2)[nH]c2nccnc12 needs its residual activity filled in; supply it.
Output: 81

* * *

# maps each entry to its residual activity
target: Mitogen-activated protein kinase kinase kinase kinase 2 (Homo sapiens); conditions: at 10 µM
Entry rule: numbers only, all in %.

Below: 2 compounds and their reported residual activity.
| compound | data value |
| --- | --- |
| N#Cc1c(NC(=O)c2cccc3ccccc23)sc2c1CCCC2 | 90 |
| CSc1nc(-c2ccc(F)cc2)c(-c2ccnc(NC(C)c3ccccc3)c2)[nH]1 (stereo unspecified) | 56 |

Input: Check Mitogen-activated protein kinase kinase kinase kinase 2 (Homo sapiens) data and give residual activity for O=C1Cc2c([nH]c3ccc([N+](=O)[O-])cc23)-c2ccccc2N1 .
Output: 5

Input: State measured residual activity of the compound CCCC(=O)Oc1ccc2[nH]c(C(=O)c3cc4ccccc4[nH]3)cc2c1 with Mitogen-activated protein kinase kinase kinase kinase 2 (Homo sapiens).
Output: 70

Input: Please report residual activity with Mitogen-activated protein kinase kinase kinase kinase 2 (Homo sapiens) for item O=C(CCCc1ccc(-c2ccccc2F)cc1)Nc1ccc(O)cc1 .
Output: 89

Input: Give measured residual activity for CCCCc1c(-c2ccc(OC)cc2)[nH]c2nccnc12 (Mitogen-activated protein kinase kinase kinase kinase 2 (Homo sapiens)).
Output: 32

Input: Write down measured residual activity (Mitogen-activated protein kinase kinase kinase kinase 2 (Homo sapiens)) for this compound. COc1ccc2c(c1)c(C1=C(c3c[nH]c4ccccc34)C(=O)NC1=O)cn2CCCN(C)C
Output: 30

Input: Please report residual activity with Mitogen-activated protein kinase kinase kinase kinase 2 (Homo sapiens) for item CCOC(=O)c1c(C)[nH]c(/C=C2\C(=O)Nc3ccccc32)c1C .
Output: 77

Input: Retrieve residual activity on Mitogen-activated protein kinase kinase kinase kinase 2 (Homo sapiens); query Cn1c2ccccc2c2c3c(c4c5ccccc5n(CCC#N)c4c21)CNC3=O
Output: 1

Input: Answer with residual activity of O=S(=O)(NCCNC/C=C/c1ccc(Br)cc1)c1cccc2cnccc12 measured for Mitogen-activated protein kinase kinase kinase kinase 2 (Homo sapiens).
Output: 42

Input: Please look at Cc1cc(C)c(/C=C2\C(=O)Nc3ccccc32)[nH]1 and tell me its recorded residual activity on Mitogen-activated protein kinase kinase kinase kinase 2 (Homo sapiens).
Output: 11

* * *

target: Tyrosine-protein kinase Lck (Homo sapiens) (UniProt P06239); conditions: at 1 µM
Sequence (P06239 2-509 limits assumed): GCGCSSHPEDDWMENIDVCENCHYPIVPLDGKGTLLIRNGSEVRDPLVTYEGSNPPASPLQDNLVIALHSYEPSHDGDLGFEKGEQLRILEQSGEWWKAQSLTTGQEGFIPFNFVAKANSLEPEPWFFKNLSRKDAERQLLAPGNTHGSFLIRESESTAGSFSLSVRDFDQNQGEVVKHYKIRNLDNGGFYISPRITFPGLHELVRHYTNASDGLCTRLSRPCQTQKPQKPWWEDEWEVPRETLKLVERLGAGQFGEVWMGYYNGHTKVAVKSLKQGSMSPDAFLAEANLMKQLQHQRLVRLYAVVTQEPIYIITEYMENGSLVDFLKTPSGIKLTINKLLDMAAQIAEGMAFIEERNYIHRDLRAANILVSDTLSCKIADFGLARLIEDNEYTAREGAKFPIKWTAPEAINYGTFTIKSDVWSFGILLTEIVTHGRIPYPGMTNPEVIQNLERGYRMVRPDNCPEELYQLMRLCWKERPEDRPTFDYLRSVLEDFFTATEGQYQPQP
Binary classification by residual activity, with 60% as an inclusive lower bound for T; all other cases are F.

| structure string | label |
| --- | --- |
| COc1ccc(CNC(=O)Nc2ncc([N+](=O)[O-])s2)cc1 | T |
| CC(C)(C)n1nc(Cc2cccc3ccccc23)c2c(N)ncnc21 | F |
| COc1ccc(COc2ccc(Cc3cnc(N)nc3N)cc2OC)cc1 | T |
| CCCCc1c(-c2ccc(O)cc2)[nH]c2nccnc12 | F |
| CN([C@@H](Cc1ccc(OS(=O)(=O)c2cccc3cnccc23)cc1)C(=O)N1CCN(c2ccccc2)CC1)S(=O)(=O)c1cccc2cnccc12 | T |
| c1ccc(-c2cnc(Nc3ccc(OCCN4CCCC4)cc3)s2)cc1 | F |
| CCCCc1c(-c2ccc(OC)cc2)[nH]c2nccnc12 | F |
| O=C1NC(=O)C(c2cn(CCCn3ccnc3)c3ccccc23)=C1Nc1ccccc1 | T |
| CCN(CC)CCNC(=O)c1c(C)[nH]c(/C=C2\C(=O)Nc3ccc(Cl)cc32)c1C | F |

--- query ---
Input: Check the entry O=C(c1ccccc1)c1ccc(N2CCOCC2)cc1O : does residual activity equal or exceed 60%?
Output: T

* * *

biological target: Platelet-derived growth factor receptor beta (Homo sapiens) (UniProt P09619); details: at 1 µM
Sequence (P09619 whole entry): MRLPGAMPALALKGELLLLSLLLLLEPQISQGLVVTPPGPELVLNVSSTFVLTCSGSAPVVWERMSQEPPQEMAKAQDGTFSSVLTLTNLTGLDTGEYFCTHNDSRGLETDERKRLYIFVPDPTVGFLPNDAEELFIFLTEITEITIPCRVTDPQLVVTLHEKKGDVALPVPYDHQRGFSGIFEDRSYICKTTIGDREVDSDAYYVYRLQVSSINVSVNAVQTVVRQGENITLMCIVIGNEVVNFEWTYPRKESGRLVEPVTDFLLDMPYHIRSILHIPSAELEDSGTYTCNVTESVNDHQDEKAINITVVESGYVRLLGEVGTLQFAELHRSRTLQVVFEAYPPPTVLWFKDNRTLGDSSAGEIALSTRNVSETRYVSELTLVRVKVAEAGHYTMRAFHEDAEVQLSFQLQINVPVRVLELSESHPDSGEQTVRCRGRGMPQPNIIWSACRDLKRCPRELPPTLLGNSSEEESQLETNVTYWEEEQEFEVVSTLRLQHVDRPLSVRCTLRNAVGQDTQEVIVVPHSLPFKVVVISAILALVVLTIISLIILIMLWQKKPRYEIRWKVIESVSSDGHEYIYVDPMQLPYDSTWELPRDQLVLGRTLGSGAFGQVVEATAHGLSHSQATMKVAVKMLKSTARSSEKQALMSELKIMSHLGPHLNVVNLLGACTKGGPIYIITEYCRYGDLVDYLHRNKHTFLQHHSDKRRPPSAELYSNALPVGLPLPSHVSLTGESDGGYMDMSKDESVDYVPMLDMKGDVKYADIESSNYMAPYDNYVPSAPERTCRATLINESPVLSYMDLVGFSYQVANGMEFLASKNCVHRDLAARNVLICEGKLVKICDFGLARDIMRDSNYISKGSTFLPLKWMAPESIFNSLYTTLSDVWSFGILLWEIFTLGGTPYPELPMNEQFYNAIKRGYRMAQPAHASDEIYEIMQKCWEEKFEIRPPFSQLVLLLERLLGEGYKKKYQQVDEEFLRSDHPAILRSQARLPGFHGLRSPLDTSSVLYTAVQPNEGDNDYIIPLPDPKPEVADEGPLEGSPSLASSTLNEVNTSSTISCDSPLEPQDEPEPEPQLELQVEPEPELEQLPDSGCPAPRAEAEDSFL
Each entry below carries its reported residual activity.
Your answer is read as %, so omit the unit and give the number.

| compound | target system | residual activity (%) |
| --- | --- | --- |
| O=C(Nc1ccc(Cl)cc1)c1ccccc1NCc1ccncc1 | Platelet-derived growth factor receptor beta (Homo sapiens) (UniProt P09619) | 46 |
| c1ccc(-c2cnc(Nc3ccc(OCCN4CCCC4)cc3)s2)cc1 | Platelet-derived growth factor receptor beta (Homo sapiens) (UniProt P09619) | 3 |
| Nc1nc(Nc2ccc(S(N)(=O)=O)cc2)nn1C(=O)c1c(F)cccc1F | Platelet-derived growth factor receptor beta (Homo sapiens) (UniProt P09619) | 108 |
| O=C1C(Cl)=C(N2C(=O)CCC2=O)C(=O)c2ccccc21 | Platelet-derived growth factor receptor beta (Homo sapiens) (UniProt P09619) | 95 |
| CCOC(=O)c1c(C)[nH]c(/C=C2\C(=O)Nc3ccccc32)c1C | Platelet-derived growth factor receptor beta (Homo sapiens) (UniProt P09619) | 90 |

Input: Provide the reported residual activity (system: Platelet-derived growth factor receptor beta (Homo sapiens) (UniProt P09619)) for Fc1ccc(-c2nc3n(c2-c2ccncc2)CCS3)cc1
Output: 123

Input: Report measured residual activity on Platelet-derived growth factor receptor beta (Homo sapiens) (UniProt P09619); entry: CN(C)S(=O)(=O)c1ccc2c(c1)/C(=C/c1cc3c([nH]1)CCCC3)C(=O)N2
Output: 80

Input: Check Platelet-derived growth factor receptor beta (Homo sapiens) (UniProt P09619) data and give residual activity for O=C(c1ccccc1)c1ccc(N2CCOCC2)cc1O .
Output: 116

Input: Look up Platelet-derived growth factor receptor beta (Homo sapiens) (UniProt P09619) data: residual activity of O=C(Nc1nc2ccccc2n1CCN1CCOCC1)c1cccc([N+](=O)[O-])c1 , then report it.
Output: 104

Input: GET residual activity where system = Platelet-derived growth factor receptor beta (Homo sapiens) (UniProt P09619) and item = CCN(CC)CCNC(=O)c1c(C)[nH]c(/C=C2\C(=O)Nc3ccc(Cl)cc32)c1C
Output: 1

Input: Fill in: residual activity on Platelet-derived growth factor receptor beta (Homo sapiens) (UniProt P09619), entry CC(C)c1nn(-c2c(Cl)cccc2Cl)c2nc(Cc3ccc(OCCO)cc3)[nH]c(=O)c12
Output: 103

Input: Give residual activity for O=C(c1cc2cc(O)ccc2[nH]1)c1cc2cc(O)ccc2[nH]1 tested on Platelet-derived growth factor receptor beta (Homo sapiens) (UniProt P09619).
Output: 35

Input: Please indicate recorded residual activity of O=C1Nc2ccc(Cl)cc2/C1=C/c1cc(Cl)c(O)c(Cl)c1 measured with Platelet-derived growth factor receptor beta (Homo sapiens) (UniProt P09619).
Output: 75

Input: Please report the measured residual activity for COc1cc2nccc(Oc3ccc(NC(=O)Nc4cc(C)on4)c(Cl)c3)c2cc1OC tested on Platelet-derived growth factor receptor beta (Homo sapiens) (UniProt P09619).
Output: 13

Input: Write down the reported residual activity (system: Platelet-derived growth factor receptor beta (Homo sapiens) (UniProt P09619)) of Nc1ncnc2c1c(-c1ccc(Oc3ccccc3)cc1)cn2C1CCCC1
Output: 54

Input: Check Platelet-derived growth factor receptor beta (Homo sapiens) (UniProt P09619) data and give residual activity for O=C1Cc2c([nH]c3ccc([N+](=O)[O-])cc23)-c2ccccc2N1 .
Output: 107

Input: State measured residual activity of the compound COc1ccc(CNC(=O)Nc2ncc([N+](=O)[O-])s2)cc1 with Platelet-derived growth factor receptor beta (Homo sapiens) (UniProt P09619).
Output: 101

Input: State residual activity on Platelet-derived growth factor receptor beta (Homo sapiens) (UniProt P09619). Entry: O=c1cc(N2CCNCC2)oc2c(-c3ccccc3)cccc12
Output: 99

Source: ChEMBL document CHEMBL2218924
